ASSAYED TARGET: UniProtKB P49286
Sequence (P49286 whole entry): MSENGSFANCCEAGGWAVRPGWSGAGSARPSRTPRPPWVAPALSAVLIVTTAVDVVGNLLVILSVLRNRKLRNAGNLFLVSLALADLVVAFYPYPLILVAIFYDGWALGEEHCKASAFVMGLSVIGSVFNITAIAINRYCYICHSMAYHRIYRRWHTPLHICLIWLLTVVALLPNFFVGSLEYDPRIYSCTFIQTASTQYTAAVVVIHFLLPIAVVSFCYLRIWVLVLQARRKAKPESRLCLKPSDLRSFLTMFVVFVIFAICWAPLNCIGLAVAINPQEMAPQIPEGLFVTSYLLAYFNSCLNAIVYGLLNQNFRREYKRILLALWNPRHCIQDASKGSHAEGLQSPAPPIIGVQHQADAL
ASSAY REMARKS: Displacement of 2-[125I]-iodomelatonin from human melatonin receptor MT2 expressed in CHO cells after 1 hr by gamma counting analysis
Format: cell-based
EXPERIMENTAL PARAMETERS: read-out: Ki
MEASURED QUANTITY: Ki (nM)

O=C(NCCc1cccc2ccc(OCCCOc3ccc4cccc(CCNC(=O)C(F)F)c4c3)cc12)C(F)F    8.1

a = O=C(NCCc1c[nH]c2ccc(OCCCOc3ccccc3)cc12)C(F)F
b = O=C(NCCc1cccc2ccc(OCCCCOc3ccc4cccc(CCNC(=O)C(F)F)c4c3)cc12)C(F)F
Request: Field: lower recorded Ki (choose a or b ) Write the label of whichever entry you select.
Result: a

====

ASSAYED TARGET: Melatonin receptor type 1A (Homo sapiens)
Sequence (P48039 whole entry): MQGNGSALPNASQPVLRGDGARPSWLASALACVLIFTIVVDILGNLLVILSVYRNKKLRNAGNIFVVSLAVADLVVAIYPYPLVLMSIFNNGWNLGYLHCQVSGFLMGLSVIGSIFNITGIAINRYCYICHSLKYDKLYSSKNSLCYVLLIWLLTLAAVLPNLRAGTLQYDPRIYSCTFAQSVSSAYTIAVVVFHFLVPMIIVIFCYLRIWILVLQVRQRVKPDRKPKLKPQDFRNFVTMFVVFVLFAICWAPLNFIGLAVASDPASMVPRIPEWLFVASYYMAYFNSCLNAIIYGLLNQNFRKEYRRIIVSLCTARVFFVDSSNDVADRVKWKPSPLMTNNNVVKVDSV
ASSAY REMARKS: Displacement of 2-[125I]-iodomelatonin from human melatonin receptor MT1 expressed in CHO cells after 1 hr by gamma counting analysis
Type: cell-based
EXPERIMENTAL PARAMETERS: read-out: Ki
MEASURED QUANTITY: Ki (nM)

O=C(NCCc1cccc2ccc(OCCCOc3ccc4cccc(CCNC(=O)C(F)F)c4c3)cc12)C(F)F    1.2
CC(=O)NCCc1cccc2ccc(OCCCOc3ccccc3)cc12    35
O=C(NCCc1c[nH]c2ccc(OCCCOc3ccccc3)cc12)C(F)F    6.2
O=C(NCCc1cccc2ccc(OCCCCOc3ccc4cccc(CCNC(=O)C(F)F)c4c3)cc12)C(F)F    12
CC(=O)NCCc1cccc2ccc(OCCCCc3ccccc3)cc12    9
COc1ccc2cccc(CCNC(=O)C(Cl)Cl)c2c1    5
COc1ccc2cccc(CCNC(=O)C(F)(F)F)c2c1    5

a = CC(=O)NCCc1cccc2ccc(OCCCc3ccccc3)cc12
b = COc1ccc2cccc(CCNC(=O)C(F)F)c2c1
c = CC(=O)NCCc1cccc2ccc(OCCCOc3ccc4cccc(CCNC(C)=O)c4c3)cc12
Request: Hey, quick one: sort these by Ki, largest value first please. Give the order by naming the labels one after another as requested.
Result: c, a, b
